Each recorded value in this set is attributed to patent US20250304587A1.

T1/2 liver microsomes Rat by entry:
Experiment: Metabolic stability in liver microsomes, rat
Type: in vitro ADME
Write down the numeric answer in h and omit the unit.

compound	measured metric	value observed
C=CCn1c(=O)c2cnc(Nc3ccc(N4CCC(N(C)C)CC4)c(C)c3)nc2n1-c1ccc2c(n1)[C@@](C)(O)C1(CC2)CC1 (single isomer, unassigned) [Compound 52a]	T1/2 liver microsomes Rat	0.5237
C=CCn1c(=O)c2cnc(Nc3ccc(N4CC5CC(C4)N5C)cc3)nc2n1-c1ccc2c(n1)[C@@](C)(O)C1(CC2)CC1	T1/2 liver microsomes Rat	0.357

Can you share its T1/2 liver microsomes Rat? I mean this compound: C=CCn1c(=O)c2cnc(Nc3ccc(N4C[C@H]5CN(C)C[C@H]5C4)cc3)nc2n1-c1ccc2c(n1)C(O)(CC)C1(CC1)C2 (stereo partly drawn)
0.515
